Test system: UACC-257 melanoma
Experiment: NCI-60 one-dose screen, 48 h
Conditions: 10 µM unless noted
Compounds without any hit were thinned out: in the full panel of roughly 83,000, 20% have a hit. Activity calls are given as the source filed them. Rule for the calls: active = growth percent below 10; inactive = the rest.
Classes used: T (active), F (inactive)

Compound: C=CCOC(=O)C1=C(C)NC(=O)NC1c1c(Cl)n(C)c2ccccc12 (stereo unspecified)
Cat: F
//
Compound: CCCCCCC(=O)Nc1ncc(Cc2ccc(C)cc2)s1
Cat: F
//
Compound: COc1ccc(-c2ccc(=O)oc2C#Cc2cc(OC)c(OC)c(OC)c2)cc1O
Cat: F
//
Compound: CCOC(=O)Nc1nc2ccc(SCC(C)C)cc2s1
Cat: F
//
Compound: CCN1C(=O)N(CC)C2C1NN=c1s/c(=C\c3ccccc3Br)c(=O)n12 (stereo unspecified)
Cat: F
//
Compound: Oc1c(CN2CCCC2)cc(COCc2ccccc2)c2cccnc12
Cat: T
//
Compound: O=C1/C(=C/c2ccccc2[N+](=O)[O-])COc2ccc(O)cc21
Cat: T
//
Compound: COc1ccc2cc(Cn3cc[n+](Cc4ccc5ccccc5c4)c3)ccc2c1
Cat: T
//
Compound: Cc1ccc2nc(Cl)c(Cn3nnnc3SCc3ccccc3)cc2c1
Cat: F
//
Compound: O=C(Nc1cccnc1Nc1ccc(Cl)cc1)c1cn(Cc2ccc(F)cc2)nn1
Cat: F
//
Compound: COc1ccc(-c2ccc(-c3ccc(C(=N)N)cn3)s2)cc1
Cat: F

---

The entries below come with measured growth values attached.
System: OVCAR-3 ovarian
Test: NCI-60 one-dose screen, 48 h (100 = growth as untreated, 0 = no growth, -100 = all killed)
Settings: 10 µM unless noted
About 83,000 compounds went through this panel and 20% of them were active in at least one assay; those are over-represented in the sample as a whole. Active and inactive are the calls of the source. The calls were made as follows: active = growth percent below 10; inactive = the rest.
Quantity name: growth

Molecule: COc1cc(/C=C/c2cc(/C=C/c3ccc(O)c(OC)c3)n(C(=O)Nc3ccc(F)cc3)n2)ccc1O
System: OVCAR-3 ovarian
Data value: 3.89% (active)
--
Molecule: O=C(CCCCNC(=O)c1cc(=O)c(O)co1)Nc1ccccc1
System: OVCAR-3 ovarian
Data value: 47.4% (inactive)
--
Molecule: COc1cccc(OC)c1Oc1c(-c2nc3ccccc3s2)c(C)nn1-c1ccccc1
System: OVCAR-3 ovarian
Data value: 89.6% (inactive)
--
Molecule: Nc1n[nH]c2ccc([C@@H]3Nc4cc5[nH]ncc5cc4[C@H]4C5CCC(C5)[C@@H]34)cc12 (some centres undefined)
System: OVCAR-3 ovarian
Data value: -27.6% (active)

---

Tested on: T-47D breast
Assay: NCI-60 one-dose screen, 48 h (100 = growth as untreated, 0 = no growth, -100 = all killed)
Conditions: 10 µM unless noted
About 83,000 compounds went through this panel and 20% of them were active in at least one assay; those are over-represented in the sample as a whole.
The entries below come with measured growth values attached.
Quantity name: growth (%)

Compound: O=C(N=Nc1c(O)[nH]c2ccccc12)Nc1ccc(Cl)cc1
Unit symbol: %
Data value: 87.2
--
Compound: CCCCc1oc2ccccc2c1C(=O)c1ccc(O)cc1
Unit symbol: %
Data value: 75.3
--
Compound: Cc1nc2sc(C(=O)Nc3ccccc3)c(N)c2cc1C(=O)/C=C/c1ccccc1
Unit symbol: %
Data value: 1.62
--
Compound: O=C(NCc1ccccc1O)c1cccc2ccccc12
Unit symbol: %
Data value: 59.7
--
Compound: O=C(O)CCCn1c(SCc2c(Cl)cccc2Cl)nc2ccsc2c1=O
Unit symbol: %
Data value: 35.5
--
Compound: CN1CCN(Cc2ccc(NC(=O)c3cncc(C#Cc4cncc5ncccc45)c3)cc2C(F)(F)F)CC1
Unit symbol: %
Data value: 60.9
--
Compound: Cc1cc2oc(=O)cc(CP(=O)(O)O)c2cc1O
Unit symbol: %
Data value: 98.8
--
Compound: CCC(C)Nc1ccc(NC(C)CC)cc1 (stereo unspecified)
Unit symbol: %
Data value: 79.7
--
Compound: CCN1C(=O)N(CC)C2C1NN=C1SCC(=O)N12 (stereo unspecified)
Unit symbol: %
Data value: 31.9
--
Compound: O=C(O)C1CN(c2cccc(Cl)c2)N(c2cccc(Cl)c2)C1=O (stereo unspecified)
Unit symbol: %
Data value: 88.9
--
Compound: CCC(CC)(N(CC(=O)O)CC(=O)O)C(CC)(CC)N(CC(=O)O)CC(=O)O
Unit symbol: %
Data value: 96.3
